Target: human D2-long dopamine receptor (Homo sapiens, UniProt P14416)
Sequence (P14416 whole entry): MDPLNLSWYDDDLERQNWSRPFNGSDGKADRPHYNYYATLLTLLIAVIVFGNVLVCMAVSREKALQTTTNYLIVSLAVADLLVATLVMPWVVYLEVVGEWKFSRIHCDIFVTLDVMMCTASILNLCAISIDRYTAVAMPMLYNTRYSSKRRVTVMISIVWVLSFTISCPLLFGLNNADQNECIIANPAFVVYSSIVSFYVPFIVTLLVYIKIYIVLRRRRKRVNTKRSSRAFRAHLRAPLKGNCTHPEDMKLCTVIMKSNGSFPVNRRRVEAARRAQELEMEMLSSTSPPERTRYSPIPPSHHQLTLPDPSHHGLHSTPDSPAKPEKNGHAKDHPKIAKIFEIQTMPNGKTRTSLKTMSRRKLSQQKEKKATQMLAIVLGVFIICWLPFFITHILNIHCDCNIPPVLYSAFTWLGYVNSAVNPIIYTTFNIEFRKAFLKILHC
Test: Binding in cloned human D2 receptors in HEK cells
Settings: 125I-IABN
Excerpt: Human dopamine D2-long (“D2”) and D3 ([…]) receptors were expressed in HEK cells. In brief, stably transfected HEK cells expressing the human D2-long and the D3 dopamine receptor were developed using the pIRES bicistronic expression vector (CLONTECH; Palo Alto, Calif.). […] For comparison, human dopamine D4 (“D4”) receptors were obtained from HEK 293 cells stably transfected with a PCR product o'f a human cDNA coding for the D4.4 form of the human D4 dopamine receptor.
endpoint name: Ki (nM)
Give bare numbers, in nM.

O=C(NC/C=C/CN1CCN(c2cccc(Cl)c2Cl)CC1)c1ccccc1O; 7.3
O=C(NC/C=C/CN1CCN(c2cccc(Cl)c2Cl)CC1)c1cnc2ccccc2n1; 70

Look up Ki for the entries below, preserving their order.
1. O=C(NC/C=C/CN1CCN(c2cccc(Cl)c2Cl)CC1)c1ccccc1[N+](=O)[O-]
2. COc1ccccc1C(=O)NC/C=C/CN1CCN(c2cccc(Cl)c2Cl)CC1
3. O=C(NC/C=C/CN1CCN(c2cccc(Cl)c2Cl)CC1)c1cc2ccccc2o1

Data returned:
1. 10.5
2. 5.3
3. 101

###

target: human D2-long dopamine receptor (Homo sapiens); assay: Binding in cloned human D2 receptors in HEK cells; details: 125I-IABN
endpoint name: pKi
Answers are plain numbers, as −log10 of the molar value.

O=C(NC/C=C/CN1CCN(c2cccc(Cl)c2Cl)CC1)c1ccccc1I [PG01018]; 7.90

Please supply pKi for each of the following items, keeping them in order.
1. O=C(NC/C=C/CN1CCN(c2cccc(Cl)c2Cl)CC1)c1ccccc1Cl [PG01009]
2. O=C(NCC=CCN1CCN(c2cccc(Cl)c2Cl)CC1)c1ccc(O)cc1 [PG01015]
3. O=C(NC/C=C/CN1CCN(c2cccc(Cl)c2Cl)CC1)c1ccc(Cl)cc1 [PG01007]
4. O=C(NCC=CCN1CCN(c2cccc(Cl)c2Cl)CC1)c1ccc(I)cc1 [EEC 017]
5. O=C(NCC#CCN1CCN(c2cccc(Cl)c2Cl)CC1)c1cccc2c1-c1ccccc1C2 [JJC 2-077]
6. O=C(NC/C=C/CN1CCN(c2cccc(Cl)c2Cl)CC1)c1ccncc1 [PG01035]
7. O=C(NC/C=C/CN1CCN(c2cccc(Cl)c2Cl)CC1)c1ccccn1 [PG01034]

Data returned:
1. 7.88
2. 7.86
3. 7.60
4. 7.45
5. 6.23
6. 7.76
7. 7.51

The compound listed as O=C(NCC#CCN1CCN(c2cccc(Cl)c2Cl)CC1)c1ccccc1 [JJC 2-062] shows pKi equal to 6.31

###

target: human D2-long dopamine receptor (Homo sapiens, UniProt P14416); experiment: Binding in cloned human D2 receptors in HEK cells; conditions: 125I-IABN
Give pKi for every item shown.
One number for each entry, as −log10 of the molar value.

O=C(NC/C=C/CN1CCN(c2cccc(Cl)c2Cl)CC1)c1ccc(F)cc1; 8.09
O=C(NC/C=C/CN1CCN(c2cccc(Cl)c2Cl)CC1)c1ccc2c(c1)Cc1ccccc1-2; 6.73
Nc1ccccc1C(=O)NC/C=C/CN1CCN(c2cccc(Cl)c2Cl)CC1; 7.59
O=C(NC/C=C/CN1CCN(c2cccc(Cl)c2Cl)CC1)c1ccc(-c2cccnc2)cc1; 7.20
O=C(NC/C=C\CN1CCN(c2cccc(Cl)c2Cl)CC1)c1ccc2c(c1)Cc1ccccc1-2; 7.21
O=C(NC/C=C/CN1CCN(c2cccc(Cl)c2Cl)CC1)c1ccc(-c2ccccn2)cc1; 7.09
COc1cccc(C(=O)NC/C=C/CN2CCN(c3cccc(Cl)c3Cl)CC2)c1; 7.24
COc1ccc(C(=O)NC/C=C/CN2CCN(c3cccc(Cl)c3Cl)CC2)cc1; 7.46
O=C(NC/C=C/CN1CCN(c2cccc(Cl)c2Cl)CC1)c1cccnc1; 7.95

Item: "O=C(NCC#CCN1CCN(c2cccc(Cl)c2Cl)CC1)c1ccc2c(c1)Cc1ccccc1-2" | pKi: 5.78

###

target: human D3 dopamine receptor (Homo sapiens); construct: expressed in transfected cells; assay: Binding in cloned human D3 receptors in HEK cells
Sequence (P35462 whole entry): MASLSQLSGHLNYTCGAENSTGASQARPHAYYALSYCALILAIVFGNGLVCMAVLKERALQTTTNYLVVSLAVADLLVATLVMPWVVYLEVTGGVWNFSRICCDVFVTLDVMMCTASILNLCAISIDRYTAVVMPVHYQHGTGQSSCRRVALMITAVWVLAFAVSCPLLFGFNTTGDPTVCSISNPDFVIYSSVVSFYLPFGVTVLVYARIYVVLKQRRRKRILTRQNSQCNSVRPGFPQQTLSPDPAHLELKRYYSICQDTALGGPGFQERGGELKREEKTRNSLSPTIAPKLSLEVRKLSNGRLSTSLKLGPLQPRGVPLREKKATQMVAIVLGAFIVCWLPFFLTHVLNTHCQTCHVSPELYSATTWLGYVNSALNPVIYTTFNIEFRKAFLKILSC
Give measured Ki for each item. Keep answers brief.
Please state the value followed by its unit.

Here's what some known entries look like.
O=C(NCC=CCN1CCN(c2cccc(Cl)c2Cl)CC1)c1ccc(O)cc1; 0.4 nM
O=C(NC/C=C/CN1CCN(c2cccc(Cl)c2Cl)CC1)c1cc2ccccc2s1; 1.3 nM

Now for the molecule whose Ki we want.
Form field Ki, entry "O=C(NC/C=C/CN1CCN(c2cccc(Cl)c2Cl)CC1)c1ccccn1" : 2 nM
